# study system: Carbonic anhydrase 9 (Homo sapiens)
# assay procedure: Inhibition of recombinant human catalytic domain of carbonic anhydrase-9 preincubated for 15 mins by stopped-flow CO2 hydration assay
endpoint: Ki (nM)

molecule smiles | study system | result
Cc1ncc([N+](=O)[O-])n1CCNC(=S)Nc1ccc(S(N)(=O)=O)cc1 | Carbonic anhydrase 9 (Homo sapiens) | 7.3
Cc1ncc([N+](=O)[O-])n1CCNC(=S)NCCc1ccc(S(N)(=O)=O)cc1 | Carbonic anhydrase 9 (Homo sapiens) | 8.3
Cc1ncc([N+](=O)[O-])n1CCNC(=S)NCc1ccc(S(N)(=O)=O)cc1 | Carbonic anhydrase 9 (Homo sapiens) | 7.2

P = NS(=O)(=O)c1ccc(CCNC(=O)Cn2ccnc2[N+](=O)[O-])cc1
Q = NS(=O)(=O)NCCn1ccnc1[N+](=O)[O-]
R = Cc1nccn1CCCNS(N)(=O)=O
## Input // sort entries: Ki, high to low When ranking, write the labels in the order the request describes.
## Output Q, R, P

----------
# study system: Carbonic anhydrase 12 (Homo sapiens)
# Sequence (O43570 whole entry, the tested form may be a part): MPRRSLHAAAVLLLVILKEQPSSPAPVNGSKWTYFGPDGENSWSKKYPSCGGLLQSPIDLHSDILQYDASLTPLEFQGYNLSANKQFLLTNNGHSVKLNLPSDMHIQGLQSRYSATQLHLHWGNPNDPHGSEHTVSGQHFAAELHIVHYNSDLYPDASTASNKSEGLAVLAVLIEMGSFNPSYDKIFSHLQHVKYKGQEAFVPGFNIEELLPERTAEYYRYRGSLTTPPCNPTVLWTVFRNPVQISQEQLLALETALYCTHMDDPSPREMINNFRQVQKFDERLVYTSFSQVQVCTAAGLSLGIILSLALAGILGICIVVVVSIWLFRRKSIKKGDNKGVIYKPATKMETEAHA
# assay procedure: Inhibition of recombinant human catalytic domain of carbonic anhydrase-12 preincubated for 15 mins by stopped-flow CO2 hydration assay
endpoint: Ki

molecule smiles | study system | Ki
CS(=O)(=O)NCCn1ccnc1[N+](=O)[O-] | Carbonic anhydrase 12 (Homo sapiens) | > 20 µM

For the next question, use this compound.
## Input // lookup Ki for Cc1ncc([N+](=O)[O-])n1CCNS(C)(=O)=O
## Output > 20 µM
